Reference source for all entries: PubChem BioAssay (NCI)

# Tested on: SK-OV-3 ovarian
# measurement.protocol: NCI-60 one-dose screen, 48 h (100 = growth as untreated, 0 = no growth, -100 = all killed)
# study.conditions: 10 µM unless noted
Compounds without any hit were thinned out: in the full panel of roughly 83,000, 20% have a hit.
reported.metric: growth (%)
Dear colleague, please return just the value in %, with no unit written.

The examples below pair each entry with its known result.
structure: O=C1Nc2ccccc2/C1=C/c1cccn1C(=O)c1ccc(Cl)s1
units.label: %
growth: 72
//
structure: Fc1ccc(Cn2cc(CSc3nc4ccccc4o3)nn2)cc1
units.label: %
growth: 91.3

Attention now shifts to the item below.
Query: Give me measured growth, please, for this compound: `O=C(Nc1ccc(Cl)cc1)Oc1c(Cl)c(Cl)c(Cl)c(Cl)c1Cl`
Reply: 90

* * *

# Test system: HT29 colon
# measurement.protocol: NCI-60 one-dose screen, 48 h (100 = growth as untreated, 0 = no growth, -100 = all killed)
# study.conditions: 10 µM unless noted
About 83,000 compounds went through this panel and 20% of them were active in at least one assay; those are over-represented in the sample as a whole. The source made the active and inactive calls. The calls were made as follows: active = growth percent below 10; inactive = the rest.
reported.metric: growth

Query: Fill in reported growth for this entry: `O=C(Nc1ccccc1N1CCCC1=O)c1oc2ccc(F)cc2c1-c1cnn(-c2ccccc2)c1`
Reply: 62.2% [50 µM] (inactive)

Query: Look up and report measured growth for this entry: `O=C1/C(=C\c2ccccn2)c2ccccc2N1c1c(Cl)cccc1Cl`
Reply: 10.8% (inactive)

Query: Look up growth of `NS(=O)(=O)c1ccc(-c2cc(-c3nnc(SCC(=O)Nc4ccc(C(=O)/C=C/c5ccc(Cl)cc5)cc4)n3-c3ccccc3)c3ccccc3n2)cc1` and report it.
Reply: 94.9% (inactive)

* * *

# Tested on: EKVX NSCLC
# measurement.protocol: NCI-60 one-dose screen, 48 h (100 = growth as untreated, 0 = no growth, -100 = all killed)
# study.conditions: 10 µM unless noted
About 83,000 compounds went through this panel and 20% of them were active in at least one assay; those are over-represented in the sample as a whole.
reported.metric: growth (%)
Form entry: value (%) — number only.

Observe how each entry below is paired with its result.
structure: CC(C)(C)n1cc(-c2ccnc(NCCCNS(=O)(=O)c3cccc4ccccc34)c2)c(-c2cccc(F)c2)n1
units.label: %
result.value: 68.6
//
structure: CCOC(=O)/C=C1\S/C(=N\Nc2cc(=O)[nH]c3ccccc23)N(c2ccccc2)C1=O
units.label: %
result.value: 104
//
structure: COc1ccc(C(=S)N2CCN(c3ccc(Cl)cc3)CC2)cc1
units.label: %
result.value: 130
//
structure: CS(=O)(=O)c1nnc(-c2ccccc2)s1
units.label: %
result.value: 109
//
structure: O=C(O)c1cn(C2CC2)c2cc(N3CCN(C(=O)Nc4nc(-c5ccc(Br)cc5)cs4)CC3)c(F)cc2c1=O
units.label: %
result.value: 24.5

Kindly review the next compound as well.
Query: Fill: growth (EKVX NSCLC) for this compound `Ic1ccccc1I`
Reply: 98.9

* * *

Examples of compounds with documented growth follow.
# Tested on: MDA-MB-435 melanoma
# measurement.protocol: NCI-60 one-dose screen, 48 h (100 = growth as untreated, 0 = no growth, -100 = all killed)
# study.conditions: 10 µM unless noted
# Description: Growth inhibition of the MDA-MB-435 human Melanoma tumor cell line is measured as a screen for anti-cancer activity. Cells are grown in 96 well plates and exposed to the test compound for 48 hours. Compounds are tested at a single concentration, which is 10^-5 M for most compounds. The reported endpoint is percent growth (GI% or GIPRCNT), where numbers from 0 - 100% represent growth inhibition, and numbers from -100% - 0 represent cell death. […]
This is part of a sample that, as a whole, favours compounds with a hit. Of some 83,000 tested, about 20% had one in any assay. The source made the active and inactive calls. The calls were made as follows: active = growth percent below 10; inactive = the rest.

// below: answered compounds
compound: COC(=O)c1nc(-c2ccccc2)oc1S(=O)(=O)NCC(c1ccc(Cl)cc1)N1CCOCC1 (stereo not given)
result.value: 64.8% (inactive)
//
compound: Cn1cc(-c2ccc(-c3cn(C)c4ccc(Cl)cc34)[nH]2)c2cc(Cl)ccc21
result.value: 19.5% (inactive)
//
compound: CN1CCN(CC(=O)Nc2ccc3ncnc(Nc4ccc(Oc5cccc(C(F)(F)F)c5)c(Cl)c4)c3c2)CC1
result.value: -86% (active)
//
compound: C#CCNC(=O)[C@]1(C)CCC[C@@]2(C)[C@H]1CC=C1C=C(C(C)C)CC[C@@H]12
result.value: 104% (inactive)
//
compound: O=C(N/N=C\c1ccccc1S(=O)(=O)O)N/N=C/c1ccccc1S(=O)(=O)O
result.value: 105% (inactive)
//
compound: COc1ccccc1C(=O)Nc1cccc(NC(=O)c2ccoc2C)c1
result.value: -15.8% (active)
//
compound: COc1ccc(-c2nc(-c3cn(C)c4ncccc34)cs2)cc1
result.value: -43.6% [100 µM] (active)
//
compound: C=C1C(=O)O[C@H]2[C@H]1CC/C(COC(=O)/C=C/C(=O)OC/C1=C/CC[C@@]3(C)O[C@H]3[C@H]3OC(=O)C(=C)[C@@H]3CC1)=C\CC[C@@]1(C)O[C@@H]21
result.value: 80.4% (inactive)
//
compound: Cc1ccc(NC(=O)Cn2c(Br)nc3c2c(=O)n(C)c(=O)n3C)cc1
result.value: 54.2% (inactive)
//
compound: CCOC(=O)C#Cc1c(C(=O)OCC)nnn1Cc1ccc(C(F)(F)F)cc1
result.value: 63.8% (inactive)

Query: Item `O=S(=O)(NCCNc1nccc(-c2c(-c3cccc(O)c3)nc3occn23)n1)c1ccc(Br)cc1` : provide growth
Reply: 13.1% (inactive)

Query: // fetch growth given entry `C=C(C)[C@@H]1CC[C@]2(C(N)=O)CC[C@]3(C)[C@H](CC[C@@H]4[C@@]5(C)CC[C@H](OCCC#N)C(C)(C)[C@@H]5CC[C@]43C)[C@@H]12`
Reply: 89.1% (inactive)

* * *

# System: LOX IMVI melanoma
# measurement.protocol: NCI-60 one-dose screen, 48 h
# study.conditions: 10 µM unless noted
About 83,000 compounds went through this panel and 20% of them were active in at least one assay; those are over-represented in the sample as a whole. Activity calls are given as the source filed them. The calls were made as follows: active = growth percent below 10; inactive = the rest.
Respond using exactly one of the listed classes: active, inactive

molecule: CCOC(=O)C(=Cc1ccc(-c2ccccc2)cc1)C(=O)OCC
target.or.system: LOX IMVI melanoma
qualitative.label: active

molecule: Cc1ccc(S(=O)(=O)OCCCOS(=O)(=O)c2ccc(C)cc2)cc1
target.or.system: LOX IMVI melanoma
qualitative.label: inactive

molecule: CCCCCCCCCCCCCOC(=O)c1c(C)[nH]c(/C=C2\N=C(c3ccc[nH]3)C=C2OC)c1C
target.or.system: LOX IMVI melanoma
qualitative.label: active

molecule: Cc1ccc(C=C2C(=O)NC(=O)NC2=O)cc1
target.or.system: LOX IMVI melanoma
qualitative.label: inactive

Query: Returns: the outcome recorded for `O=S1(=O)C=C(c2ccccc2)C(c2ccccc2)=C1` in this assay.
Reply: active

Query: Tell me the recorded outcome of this test for `C/C(=N\O)c1ccc(NC(=O)CSc2nnc(-c3cc(-c4ccc(S(N)(=O)=O)cc4)nc4ccccc34)n2-c2ccccc2)cc1` .
Reply: inactive

Query: Lab log entry: `O=C1Nc2c(C(=O)O)cccc2/C1=N/c1n[nH]c(=S)s1` — outcome as called in the assay?
Reply: inactive

* * *

# System: HOP-62 NSCLC
# measurement.protocol: NCI-60 one-dose screen, 48 h
# study.conditions: 10 µM unless noted
Compounds without any hit were thinned out: in the full panel of roughly 83,000, 20% have a hit. Active and inactive are the calls of the source. Rule for the calls: active = growth percent below 10; inactive = the rest.
Assign a class; possible classes are active, inactive

For orientation, consider the following solved cases.
compound: Cc1ccc(-c2nc(-c3cn(C)c4ncccc34)cs2)cc1
qualitative.label: active
//
compound: O=C(CC(=O)Nc1cccc(C(=O)O)c1)Nc1cccc(C(=O)O)c1
qualitative.label: inactive
//
compound: Nc1nc2c(c3ncccc13)C(c1cccc(Cl)c1)Cc1ncccc1-2 (stereo unspecified)
qualitative.label: inactive

Query: What classification did `Cn1c(=O)c2[nH]c(SCC(=O)Nc3ccc(C(=O)/C=C/c4ccccc4Cl)cc3)nc2n(C)c1=O` end up with in this test?
Reply: inactive

Query: Hi team, can someone confirm the assay call for `CCn1cc(CNc2ccc(C(=O)Nc3cc4cc(OC)c(OC)cc4c(C)n3)cc2)cn1` ?
Reply: inactive

Query: Test call, this compound: `CN(C)c1ccc(-c2nc(-c3ccccc3)c(-c3ccccc3)[nH]2)cc1`
Reply: inactive

Query: Call for entry `CCNC(=O)Oc1ccc(/C(=C(/C)Cc2ccc(OC)cc2)c2ccc(OCCN3CCCCC3)cc2)cc1` :
Reply: inactive

Query: Could you check what this test reported for `CC(=O)c1ccc(Nc2nccc(-c3ccc4ccccc4c3)n2)cc1` ?
Reply: inactive
